# systemUnderTest: Protein cereblon/Histone acetyltransferase p300 (Homo sapiens) (UniProt Q09472+Q96SW2)
# Sequence (Q09472 2-2414 limits assumed): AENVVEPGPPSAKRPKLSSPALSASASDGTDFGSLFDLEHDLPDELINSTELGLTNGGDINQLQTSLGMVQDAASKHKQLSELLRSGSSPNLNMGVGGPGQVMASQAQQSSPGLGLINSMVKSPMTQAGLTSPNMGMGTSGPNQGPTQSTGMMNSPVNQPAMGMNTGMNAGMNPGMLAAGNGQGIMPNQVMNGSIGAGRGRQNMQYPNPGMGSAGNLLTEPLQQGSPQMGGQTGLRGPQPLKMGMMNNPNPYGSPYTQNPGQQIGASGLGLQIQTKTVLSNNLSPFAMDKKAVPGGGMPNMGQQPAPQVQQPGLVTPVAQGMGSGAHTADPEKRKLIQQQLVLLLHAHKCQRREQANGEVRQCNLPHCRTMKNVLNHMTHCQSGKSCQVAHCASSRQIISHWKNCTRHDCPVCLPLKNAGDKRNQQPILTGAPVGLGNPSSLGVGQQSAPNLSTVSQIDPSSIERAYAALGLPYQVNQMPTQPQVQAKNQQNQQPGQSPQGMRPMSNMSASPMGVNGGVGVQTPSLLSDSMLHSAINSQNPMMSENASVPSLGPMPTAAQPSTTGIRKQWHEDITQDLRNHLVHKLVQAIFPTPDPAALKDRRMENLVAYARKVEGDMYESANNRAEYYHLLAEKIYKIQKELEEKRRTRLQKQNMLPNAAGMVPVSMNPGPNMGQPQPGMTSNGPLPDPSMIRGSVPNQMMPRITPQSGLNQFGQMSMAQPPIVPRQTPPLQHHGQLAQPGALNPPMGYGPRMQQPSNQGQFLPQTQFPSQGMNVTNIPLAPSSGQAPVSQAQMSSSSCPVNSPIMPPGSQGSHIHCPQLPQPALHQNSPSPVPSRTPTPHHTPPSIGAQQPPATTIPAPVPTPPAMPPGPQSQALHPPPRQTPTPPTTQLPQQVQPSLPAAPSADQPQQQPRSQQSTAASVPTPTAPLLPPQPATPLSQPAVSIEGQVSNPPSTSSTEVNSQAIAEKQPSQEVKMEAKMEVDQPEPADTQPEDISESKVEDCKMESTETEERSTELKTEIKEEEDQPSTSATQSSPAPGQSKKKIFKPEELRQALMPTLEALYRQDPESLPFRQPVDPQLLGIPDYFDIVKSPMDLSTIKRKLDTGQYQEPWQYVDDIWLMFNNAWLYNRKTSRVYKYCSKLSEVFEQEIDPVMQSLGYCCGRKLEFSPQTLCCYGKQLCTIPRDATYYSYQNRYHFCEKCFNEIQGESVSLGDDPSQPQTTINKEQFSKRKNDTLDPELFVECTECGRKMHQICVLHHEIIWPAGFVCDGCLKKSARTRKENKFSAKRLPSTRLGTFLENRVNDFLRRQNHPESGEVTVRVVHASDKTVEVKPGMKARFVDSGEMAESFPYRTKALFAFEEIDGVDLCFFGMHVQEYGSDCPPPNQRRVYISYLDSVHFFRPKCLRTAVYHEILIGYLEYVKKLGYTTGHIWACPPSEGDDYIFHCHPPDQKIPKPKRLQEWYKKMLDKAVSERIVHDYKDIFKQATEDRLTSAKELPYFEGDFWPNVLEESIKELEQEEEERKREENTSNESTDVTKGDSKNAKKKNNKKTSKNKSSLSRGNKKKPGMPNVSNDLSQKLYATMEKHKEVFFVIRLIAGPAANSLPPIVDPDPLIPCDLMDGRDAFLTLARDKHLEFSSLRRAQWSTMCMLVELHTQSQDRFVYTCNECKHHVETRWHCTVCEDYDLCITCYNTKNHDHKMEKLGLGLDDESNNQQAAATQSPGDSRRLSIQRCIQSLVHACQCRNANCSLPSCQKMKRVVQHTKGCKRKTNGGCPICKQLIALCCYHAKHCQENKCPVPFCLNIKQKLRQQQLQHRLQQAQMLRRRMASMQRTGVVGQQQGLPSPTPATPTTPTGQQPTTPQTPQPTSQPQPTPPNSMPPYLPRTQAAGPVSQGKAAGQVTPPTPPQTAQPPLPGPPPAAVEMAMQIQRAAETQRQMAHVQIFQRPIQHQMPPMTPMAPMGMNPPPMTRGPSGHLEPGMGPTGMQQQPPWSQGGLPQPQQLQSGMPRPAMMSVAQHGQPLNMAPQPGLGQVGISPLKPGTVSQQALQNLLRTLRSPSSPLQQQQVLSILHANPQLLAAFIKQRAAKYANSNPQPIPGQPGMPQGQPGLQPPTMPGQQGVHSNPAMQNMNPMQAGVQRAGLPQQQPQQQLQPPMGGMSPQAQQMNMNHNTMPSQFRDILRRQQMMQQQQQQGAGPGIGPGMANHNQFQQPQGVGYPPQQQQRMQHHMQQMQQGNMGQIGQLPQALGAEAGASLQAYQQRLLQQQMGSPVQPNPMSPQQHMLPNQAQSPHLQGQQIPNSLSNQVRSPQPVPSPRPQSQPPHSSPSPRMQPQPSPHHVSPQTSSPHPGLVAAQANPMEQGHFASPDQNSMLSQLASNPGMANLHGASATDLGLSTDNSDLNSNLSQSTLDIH
# Sequence (Q96SW2 whole entry partner): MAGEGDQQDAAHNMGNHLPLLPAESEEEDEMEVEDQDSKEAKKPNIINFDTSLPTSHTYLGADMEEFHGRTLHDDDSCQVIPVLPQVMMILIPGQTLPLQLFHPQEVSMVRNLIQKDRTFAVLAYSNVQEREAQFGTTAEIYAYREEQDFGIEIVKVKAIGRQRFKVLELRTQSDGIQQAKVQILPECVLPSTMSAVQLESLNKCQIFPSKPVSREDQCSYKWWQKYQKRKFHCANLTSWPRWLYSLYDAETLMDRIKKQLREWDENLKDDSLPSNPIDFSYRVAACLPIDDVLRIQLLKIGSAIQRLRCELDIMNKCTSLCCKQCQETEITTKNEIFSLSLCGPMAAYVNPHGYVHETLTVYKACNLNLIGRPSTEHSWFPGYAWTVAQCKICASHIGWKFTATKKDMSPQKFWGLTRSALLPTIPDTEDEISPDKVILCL
# experiment: PROTAC activity at CRBN/HiBiT-tagged p300 in human HAP1 cells assessed as total cumulative degradation by measuring AUC at 0.01 nM measured over 24 hrs by luminescence based analysis
# Type: cell-based
parameterMeasured: AUC
// keep it numeric: no unit symbol after the value

Use the examples below as a reference point.
compound | AUC
CNC(=O)N1CCc2c(c(N3CCN(C(=O)NCCOCCOCCOCCOCCNc4ccc5c(c4)C(=O)N(C4CCC(=O)NC4=O)C5=O)c4cc(-c5cnn(C)c5)c(C(F)(F)F)cc43)nn2C2CCOCC2)C1 (configuration not stated) | 27.2
CNC(=O)N1CCc2c(c(N3CCN(C(=O)NCCOCCNc4ccc5c(c4)C(=O)N(C4CCC(=O)NC4=O)C5=O)c4cc(-c5cnn(C)c5)c(C(F)(F)F)cc43)nn2C2CCOCC2)C1 (configuration not stated) | 27.5
CNC(=O)N1CCc2c(c(N3CCCc4cc(-c5cnn(C)c5)c(C(F)F)cc43)nn2C2CCN(C(=O)CCOCCOCCOCCOCCNc3ccc4c(c3)C(=O)N(C3CCC(=O)NC3=O)C4=O)CC2)C1 (configuration not stated) | 26.1
CNC(=O)N1CCc2c(c(N3CCCc4cc(-c5cnn(CC(=O)NCCOCCNc6ccc7c(c6)C(=O)N(C6CCC(=O)NC6=O)C7=O)c5)c(C(F)F)cc43)nn2C2CCOCC2)C1 (configuration not stated) | 25.7

**Query** Output measured AUC for this item: CNC(=O)N1CCc2c(c(N3CCCc4cc(-c5cnn(C)c5)c(C(F)F)cc43)nn2C2CCN(C(=O)CCOCCNc3ccc4c(c3)C(=O)N(C3CCC(=O)NC3=O)C4=O)CC2)C1 (configuration not stated)
**Result** 27.3

**Query** Output measured AUC for this item: CNC(=O)N1CCc2c(c(N3CCN(C(=O)NCCOCCOCCOCCOCCOCCOCCNc4ccc5c(c4)C(=O)N(C4CCC(=O)NC4=O)C5=O)c4cc(-c5cnn(C)c5)c(C(F)(F)F)cc43)nn2C2CCOCC2)C1 (configuration not stated)
**Result** 27.7

**Query** Output measured AUC for this item: CNC(=O)N1CCc2c(c(N3CCCc4cc(-c5cnn(CC(=O)NCCOCCOCCOCCOCCNc6ccc7c(c6)C(=O)N(C6CCC(=O)NC6=O)C7=O)c5)c(C(F)F)cc43)nn2C2CCOCC2)C1 (configuration not stated)
**Result** 28

###

# systemUnderTest: Protein cereblon/Histone acetyltransferase p300 (Homo sapiens) (UniProt Q09472+Q96SW2)
# experiment: PROTAC activity at CRBN/HiBiT-tagged p300 in human HAP1 cells assessed as total cumulative degradation by measuring AUC at 1000 nM measured over 24 hrs by luminescence based analysis
# Type: cell-based
Item-by-item account of AUC
// keep it numeric: no unit symbol after the value

compound | parameterMeasured | readoutValue
CNC(=O)N1CCc2c(c(N3CCCc4cc(-c5cnn(C)c5)c(C(F)F)cc43)nn2C2CCN(C(=O)CCOCCNc3ccc4c(c3)C(=O)N(C3CCC(=O)NC3=O)C4=O)CC2)C1 (stereo not given) | AUC | 16.5
CNC(=O)N1CCc2c(c(N3CCN(C(=O)NCCOCCOCCOCCOCCNc4ccc5c(c4)C(=O)N(C4CCC(=O)NC4=O)C5=O)c4cc(-c5cnn(C)c5)c(C(F)(F)F)cc43)nn2C2CCOCC2)C1 (stereo not given) | AUC | 22.1
CNC(=O)N1CCc2c(c(N3CCCc4cc(-c5cnn(C)c5)c(C(F)(F)F)cc43)nn2C2CCN(C(=O)CCOCCOCCOCCOCCNc3ccc4c(c3)C(=O)N(C3CCC(=O)NC3=O)C4=O)CC2)C1 (stereo not given) | AUC | 6

**Query** Output measured AUC for this item: CNC(=O)N1CCc2c(c(N3CCCc4cc(-c5cnn(CC(=O)NCCOCCOCCOCCOCCNc6ccc7c(c6)C(=O)N(C6CCC(=O)NC6=O)C7=O)c5)c(C(F)F)cc43)nn2C2CCOCC2)C1 (stereo not given)
**Result** 15.8

**Query** Output measured AUC for this item: CNC(=O)N1CCc2c(c(N3CCCc4cc(-c5cnn(C)c5)c(C(F)F)cc43)nn2C2CCN(C(=O)CCOCCOCCOCCOCCOCCOCCNc3ccc4c(c3)C(=O)N(C3CCC(=O)NC3=O)C4=O)CC2)C1 (stereo not given)
**Result** 6
